These entries and their values trace back to patent US20220125947A1.

experimental system: T1, T cell receptor (TCR) Vγ9 (TRGV9) (human, UniProt Q99603 21-122); also: unit not given here
T1 chain (looked up): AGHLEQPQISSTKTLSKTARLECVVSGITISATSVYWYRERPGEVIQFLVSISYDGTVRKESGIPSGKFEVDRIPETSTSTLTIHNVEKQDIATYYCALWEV
experiment: cell-based or functional assay
reported metric: IL6, Luminex (supernatant)
Reply briefly: the number, and no unit.

## Input Requested field: IL6, Luminex (supernatant). Item: VG9B469 (antibody, human IgG1, kappa, V domains shown) VH: EVQLVESGGGLVKPGGSLRLSCAASGFTFSHYDMNWVRQAPGKGLEWVSSISSSSSYIFYADSVKGRFTISRDNAKNSLLLQMNSLRAEDTAVYHCARDRGVGDTSDYYSFGLDVWGQGTMVTVSS VL: DIVMTQSPGTLSLSPGERATLSCRASQNVSSTYLAWYQQKPGQAPRLLIYGACSRATGIPDRFSGSGSGTDFTLTISRLEPEDYAVYYCQQYGSSPPYTFGRGTKLEIKR
## Output 440

## Input Could you do the same for VG9B463 (antibody, human IgG1, lambda, V domains shown) VH: EVQLVESGGGLVKPGGSLRLSCSASGFTFSNYDMNWVRQAPGKGLEWVSSISSSSSYIYYADSVKGRFTISRDNAKNSLYLQMNSLRAEDTAVYHCARDVGVTTDYYYYGMDVWGQGTTVTVSS VL: QPVLTQSSSASGTPGQRVTISCSGSSSNIGSNTVNWYQQFPGTAPKLLIYTNTQRPSGVPDRFSGSKSGTLVSLAISGLQSEDEADYYCAAWDDSLNAWVFGGGTKLTVLG , please?
## Output 100
